# study_target: USP7 MATH domain (human, UniProt Q93009 68-195)
# Sequence (Q93009 68-195): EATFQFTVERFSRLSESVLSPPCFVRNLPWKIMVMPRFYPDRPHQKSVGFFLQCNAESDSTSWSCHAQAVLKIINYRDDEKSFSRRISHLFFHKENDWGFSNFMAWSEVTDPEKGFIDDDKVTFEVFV
# study_conditions: both partners purified
Ends that are not written are not given here. * marks the point of attachment. FITC = O=C1OC2(c3ccc(O)cc3Oc3cc(O)ccc32)c2ccc(NC(=S)*)cc21
assay_endpoint: Kd
Give your result as the value with the unit written after it.

// Kd value for {FITC}-DYSQPSTSSSIIY (also called MDM2 probe peptide) [MDM2 FITC-DYSQPSTSSSIIY] : 490 nM
